- tested.on: T1, human ferroportin (SLC40A1) fused in frame with GFP, stably expressed in HEK293 cells (human, UniProt Q9NP59 1-571)
- T1 sequence (looked up): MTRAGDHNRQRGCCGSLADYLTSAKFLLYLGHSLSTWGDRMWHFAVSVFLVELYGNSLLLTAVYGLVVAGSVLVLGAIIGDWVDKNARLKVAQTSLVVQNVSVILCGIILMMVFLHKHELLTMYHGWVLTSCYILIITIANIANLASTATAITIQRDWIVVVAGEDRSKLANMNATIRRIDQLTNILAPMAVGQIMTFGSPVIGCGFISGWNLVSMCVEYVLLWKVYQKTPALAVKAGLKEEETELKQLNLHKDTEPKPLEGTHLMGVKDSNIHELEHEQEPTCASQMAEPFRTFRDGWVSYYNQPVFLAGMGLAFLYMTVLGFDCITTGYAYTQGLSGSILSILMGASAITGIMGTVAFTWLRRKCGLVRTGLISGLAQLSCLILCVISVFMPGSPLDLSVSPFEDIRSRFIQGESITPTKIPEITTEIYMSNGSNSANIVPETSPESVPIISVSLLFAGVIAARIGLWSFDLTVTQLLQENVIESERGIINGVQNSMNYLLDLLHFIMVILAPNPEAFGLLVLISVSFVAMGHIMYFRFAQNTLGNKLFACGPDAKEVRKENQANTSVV
- protocol.text: cell-based or functional assay
Bridge positions count the residues as written; N and C are the ends. * marks the point of attachment. Isovaleryl = CC(C)CC(=O)*
Item-by-item account of Log dilutions EC50 (nM) (n > 3)
Report the figure in nM without appending any unit label.

| binder | Log dilutions EC50 (nM) (n > 3) |
| --- | --- |
| Isovaleryl-DTHFPICIFGPRSKGWVC-NH2 (disulfide 7-18 (inferred)) [Compound 2] | 4.1 |

Read off the recorded Log dilutions EC50 (nM) (n > 3) for Isovaleryl-DTHFPICIFGPRSKGWVC-NH2 (disulfide 7-18 (inferred); not fully specified (residue 14); also: dimer through DIG linker on εN of Lys14 of each monomer) [Compound 353]
2.2

Read off the recorded Log dilutions EC50 (nM) (n > 3) for Isovaleryl-DTHFPCIIFGPRSRGWVCK-NH2 (disulfide 6-18 (inferred); not fully specified (residue 19); also: dimer through DIG linker on εN of Lys19 of each monomer) [Compound 352]
5

Read off the recorded Log dilutions EC50 (nM) (n > 3) for Isovaleryl-DTHFPCIIFGPRSRGWVCK-NH2 (disulfide 6-18 (inferred)) [Compound 3]
15
